Tested on: HEK293
Experiment: NOD1 signaling inhibitors, primary screen, cell-based, luminescence, uHTS (AID 1578)
Assay type: functional
Details: Homo sapiens
Activity calls are given as the source filed them. No stated cut-off is given here; in the data, actives have a measured EC50 and inactives only a lower limit.
measurement kind: EC50

>>> df
                                   molecule   reported_result
0  Cc1cc(C)cc(OCC(=O)Nc2nc3ccc([N+](=O)[O-])cc3s2)c1  4.56 µM (active)
1  COc1ccc(C)cc1NC(=O)CSc1ccc(-c2sc(C)nc2C)nn1  9.47 µM (active)
2  COc1ccc(CNS(=O)(=O)c2ccc3c(c2)CC(C)N3C(=O)C2CC2)cc1 (centres undefined)  3.88 µM (active)
3  Cc1cc(C(=O)NC2CCCc3c2cnn3-c2cccc(C)c2C)n(C)n1 (centres undefined)  0.17 µM (active)
